Tested on: SMN2-linked luciferase-reporter gene construct
Test: SMN Splice Reporter Assay (SMN2-linked luciferase reporter)
Type: cell-based
Settings: fold-increase of luciferase over baseline reading of transformed cells without any test compound
Give Fold Increase for every item shown.
Numbers only.

Example molecules with recorded Fold Increase:
COc1ccc2c(c1)C(=O)N(c1ccc(C)nc1)C2 [Example 118735] ... 1.149
COc1ccc2c(c1)C(=O)N(c1ccc(C(C)C)cn1)C2 [Example 119654] ... 1.44
Cn1ccc2ccc(N3Cc4ccc(S(C)(=O)=O)cc4C3=O)cc21 [Example 124168] ... 1.462

Working through the 5 molecules below one at a time, give Fold Increase for each.
1. CC(=O)Nc1ccc2c(c1)C(=O)N(c1ccc3cc[nH]c3c1)C2 [Example 125269]
2. Nc1ccc2c(c1)C(=O)N(c1ccc3ccsc3c1)C2 [Example 122036]
3. COc1ccc2c(c1)C(=O)N(c1ccc3c(C)ccnc3c1)C2 [Example 124038]
4. Cn1ccc2cc(N3Cc4ccc(F)cc4C3=O)ccc21 [Example 121925]
5. Cc1ccc2c(c1)C(=O)N(c1ccc3c(ccn3C)c1)C2 [Example 121507]

Ans.
1: 1.416; 2: 1.827; 3: 1.509; 4: 1.347; 5: 1.411
